- ASSAYED SYSTEM: CDK2/Cyclin E1 full length (Homo sapiens (Human), UniProt P24941)
- METHOD DESCRIPTION: CDK2/Cyclin E1 full length mobility shift assay
RECORDED METRIC: Ki
For clarity, give the value followed by its unit.

See these solved cases before continuing.
1. Cc1nc(CC(=O)Nc2cc([C@H]3CC[C@@H](OC(=O)NC(C)C)C3)[nH]n2)ccc1Cl    2.34 nM
2. CC[C@H](C)NC(=O)O[C@@H]1CC[C@H](c2cc(NC(=O)Cc3cn4ccsc4n3)n[nH]2)C1    1.13 nM
3. Cn1ncc(CC(=O)Nc2cc([C@H]3CC[C@@H](OC(=O)NC4(C)CCOC4)C3)[nH]n2)c1C(F)(F)F (single isomer, unassigned) [Example 496]    2.25 nM

Identify measured Ki associated with `CC[C@H](C)NC(=O)O[C@@H]1CC[C@H](c2cc(NC(=O)Cc3cnc4ncnn4c3)n[nH]2)C1`
0.14 nM
